// %Inh lookup, one value per entry
# Test system: JNK1
# Construct: gene MAPK8
# condition: concentration: 1 μM, replicates: in singlicate; n = 1;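 note: KINOMEscan kinase panel screen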
Write the value in % as a bare number.

Example cases with answers are listed next.
[
  {
    "compound string": "CN(c1ccc2c(c1)nc(NCc1ccccc1)n2C)c1ccnc(Nc2ccc(CS(C)(=O)=O)cc2)n1.Cl",
    "target of assay": "JNK1",
    "outcome measure": "%Inh",
    "endpoint unit": "%",
    "number": 65
  },
  {
    "compound string": "Fc1cc(Cl)ccc1Nc1ccnc2cc(-c3ccc(CN4CCOCC4)o3)ccc12",
    "target of assay": "JNK1",
    "outcome measure": "%Inh",
    "endpoint unit": "%",
    "number": 29
  }
]

Now, please, on to the next compound.
Requested field: %Inh. Item: O=C(Nc1n[nH]c2nc(-c3ccccc3O)ccc12)C1CC1 38

====

# Tested on: ERBB3
# condition: concentration: 1 μM, replicates: in singlicate; n = 1
// %Inh lookup, one value per entry
Write the value in % as a bare number.

Example cases with answers are listed next.
[
  {
    "molecule": "N#Cc1cnc2cc(-c3cnc(CNCCN4CCOCC4)s3)ccc2c1Nc1ccc(Oc2ccccc2)cc1",
    "endpoint unit": "%",
    "%Inh": 100
  },
  {
    "molecule": "O=C(Nc1c(F)cccc1F)c1cc(C(=O)c2ccccc2F)c[nH]1",
    "endpoint unit": "%",
    "%Inh": 20
  },
  {
    "molecule": "CCNc1nccc(-c2c(-c3ccc(F)cc3)ncn2C2CCN(C)CC2)n1",
    "endpoint unit": "%",
    "%Inh": 9
  },
  {
    "molecule": "Fc1cc(Cl)ccc1Nc1ccnc2cc(-c3ccc(CN4CCOCC4)o3)ccc12",
    "endpoint unit": "%",
    "%Inh": 80
  }
]

Now, please, on to the next molecule.
Requested field: %Inh. Item: NCCC(NC(=O)c1cc(Br)c(-c2ccnc3[nH]ccc23)s1)c1ccccc1.O=C(O)C(F)(F)F.O=C(O)C(F)(F)F (centres unmarked) 19

====

# Test system: DDR2
# condition: concentration: 1 μM, replicates: in singlicate; n = 1
outcome measure: %Inh (%)
Write the value in % as a bare number.

Example cases with answers are listed next.
[
  {
    "molecule": "COc1cccc(C2=C(Nc3cccc(O)c3)C(=O)NC2=O)c1",
    "%Inh, %": 17
  },
  {
    "molecule": "Cc1ccc(Nc2ccnc(Nc3ccc(C)c(F)c3)n2)cc1O.Cl",
    "%Inh, %": 12
  },
  {
    "molecule": "Cc1ccc(O)cc1Nc1ccnc2ccc(C(C)(C)C)cc12",
    "%Inh, %": 60
  },
  {
    "molecule": "Cn1cc(-c2ccc3c(c2)CCN3C(=O)Cc2cc(F)cc(F)c2F)c2c(N)ncnc21",
    "%Inh, %": 27
  }
]

Now, please, on to the next molecule.
Requested field: %Inh. Item: COc1cc(Nc2nccc(N3CCC(NC(=O)Nc4ccc5c(c4)OCO5)C3)n2)cc(OC)c1OC (centres unmarked) 6

====

# Test system: ERK4
# Construct: gene MAPK4
# condition: concentration: 1 μM, replicates: in singlicate; n = 1
// %Inh lookup, one value per entry
Write the value in % as a bare number.

Example cases with answers are listed next.
[
  {
    "compound string": "CN(c1ccc2c(c1)nc(NCc1ccccc1)n2C)c1ccnc(Nc2ccc(CS(C)(=O)=O)cc2)n1.Cl",
    "endpoint unit": "%",
    "number": 0
  },
  {
    "compound string": "Fc1cc(Cl)ccc1Nc1ccnc2cc(-c3ccc(CN4CCOCC4)o3)ccc12",
    "endpoint unit": "%",
    "number": 0
  },
  {
    "compound string": "CSc1ccc(NC2=C(c3ccc(Cl)cc3)C(=O)NC2=O)cc1",
    "endpoint unit": "%",
    "number": 0
  },
  {
    "compound string": "Cc1ccc(C)c(NC(=O)Nc2ccc(C)c(-c3ccc(C(=O)Nc4ccncc4)cc3)c2)c1",
    "endpoint unit": "%",
    "number": 28
  },
  {
    "compound string": "Cc1ccc(NC(=O)c2ccnc(N3CCCCC3)c2)cc1-c1ccc(C(=O)NCC2CC2)cc1",
    "endpoint unit": "%",
    "number": 21
  }
]

Now, please, on to the next molecule.
Requested field: %Inh. Item: Nc1ncnc2scc(-c3ccc(NC(=O)Cc4cc(F)ccc4F)cc3)c12.O=C(O)C(F)(F)F 11

====

# System: CSK
# condition: concentration: 1 μM, replicates: in singlicate; n = 1
outcome measure: %Inh (%)
Write the value in % as a bare number.

Example cases with answers are listed next.
[
  {
    "compound": "Cc1ccc(O)cc1Nc1ccnc2cc(-c3ccc(CN4CCCCC4)o3)ccc12",
    "target of assay": "CSK",
    "outcome measure": "%Inh",
    "number": 82
  },
  {
    "compound": "Fc1cc(Cl)ccc1Nc1ccnc2cc(-c3ccc(CN4CCSCC4)o3)ccc12",
    "target of assay": "CSK",
    "outcome measure": "%Inh",
    "number": 13
  },
  {
    "compound": "Cn1cc(-c2ccc3c(c2)CCN3C(=O)Cc2cc(F)cc(C(F)(F)F)c2)c2c(N)ncnc21",
    "target of assay": "CSK",
    "outcome measure": "%Inh",
    "number": 0
  },
  {
    "compound": "Cc1ccc(-c2ccc3occ(-c4ccc(S(C)=O)cc4)c3c2)nn1 (stereo not drawn)",
    "target of assay": "CSK",
    "outcome measure": "%Inh",
    "number": 1
  }
]

Requested field: %Inh. Item: O=C(Nc1n[nH]c2cc(-c3cccs3)ccc12)C1CC1 13

Requested field: %Inh. Item: CNc1nccc(-c2ccc3c(N)n[nH]c3c2)n1 0

Requested field: %Inh. Item: CC(C)c1nc(-c2cccc(NS(=O)(=O)c3c(F)cccc3F)c2)c(-c2ccnc(Nc3ccc(N4CCOCC4)nc3)n2)s1.Cl 96.5

Requested field: %Inh. Item: Cc1ccc(NC(=O)c2cccc(N3CCCCC3)c2)cc1-c1ccc(C(=O)NCC2CC2)cc1 0

====

# Test system: PKN2
# condition: concentration: 1 μM, replicates: in singlicate; n = 1
// %Inh lookup, one value per entry
Write the value in % as a bare number.

[
  {
    "compound": "Cc1cccc(Nc2nc(N[C@H]3CCCC[C@H]3N)ncc2C(N)=O)c1.Cl [GSK986310]",
    "%Inh (%)": 9
  }
]

Requested field: %Inh. Item: N#Cc1cnc2cc(-c3cnc(CNCCN4CCOCC4)s3)ccc2c1Nc1ccc(Oc2ccccc2)cc1 [GW664114] 0

Requested field: %Inh. Item: Cc1ccc(NC(=O)c2ccnc(N3CCCCC3)c2)cc1-c1ccc(C(=O)NCC2CC2)cc1 [GW775610] 0

Requested field: %Inh. Item: COc1ccc(C2=C(Nc3cccc(O)c3)C(=O)NC2=O)cc1 [SB-390766] 38

====

# System: MAST1
# condition: concentration: 1 μM, replicates: in singlicate; n = 1
// %Inh lookup, one value per entry

[
  {
    "compound": "COc1cccc(-c2nc(-c3ccccc3)[nH]c2-c2ccncc2)c1",
    "target of assay": "MAST1",
    "%Inh": "22%"
  },
  {
    "compound": "Cl.Cl.NCC(NC(=O)c1cc(-c2cccnc2)c(-c2ccnc3[nH]ccc23)s1)c1ccccc1 (centres unmarked)",
    "target of assay": "MAST1",
    "%Inh": "0%"
  },
  {
    "compound": "O=C(O)C(F)(F)F.O=c1[nH]ccc2nc(N[C@@H]3CCNC3)nc(Nc3ccc4c(c3)S(=O)(=O)CC4)c12",
    "target of assay": "MAST1",
    "%Inh": "12%"
  },
  {
    "compound": "CC(C)c1nc(-c2cccc(NS(=O)(=O)c3c(F)cccc3F)c2)c(-c2ccnc(Nc3ccc(N4CCOCC4)nc3)n2)s1.Cl",
    "target of assay": "MAST1",
    "%Inh": "0%"
  }
]

Requested read-out %Inh, target or system MAST1, entry Nc1ncc(-c2cn[nH]c2)c2scc(-c3ccc4c(c3)CCN4C(=O)Cc3ccccc3)c12 0%

Requested read-out %Inh, target or system MAST1, entry CC(C)(C)c1ccc(C(=O)Nc2cn3cc(-n4ccnc4)ccc3n2)cc1 38%

Requested read-out %Inh, target or system MAST1, entry Cc1ccccc1CC(=O)N1CCc2cc(-c3cn(C)c4ncnc(N)c34)ccc21 0%

Requested read-out %Inh, target or system MAST1, entry O=C(Nc1n[nH]c2cc(-c3cccs3)ccc12)C1CC1 6%
